Biological target: ABHD6 (Mus musculus, UniProt Q8R2Y0)
Sequence (Q8R2Y0 whole entry): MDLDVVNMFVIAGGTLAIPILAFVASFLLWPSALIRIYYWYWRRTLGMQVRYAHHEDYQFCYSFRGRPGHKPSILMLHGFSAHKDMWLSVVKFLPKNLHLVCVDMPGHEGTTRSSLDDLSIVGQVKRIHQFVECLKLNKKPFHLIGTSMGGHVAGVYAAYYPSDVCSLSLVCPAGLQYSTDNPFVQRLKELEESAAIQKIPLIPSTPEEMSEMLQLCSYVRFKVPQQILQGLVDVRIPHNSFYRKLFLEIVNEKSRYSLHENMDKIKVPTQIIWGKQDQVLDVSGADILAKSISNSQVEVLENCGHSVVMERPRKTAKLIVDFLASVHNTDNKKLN
Experiment: In vitro competitive ABPP, % inhibition at fixed concentration, ABHD6
Type: biochemical
Design: from tissue
QUANTITY NAME: inhibition at 1 µM

C[C@H]1CN(Cc2ccc(N3CCOCC3)cc2Cl)CCN1C(=O)ON1C(=O)CCC1=O [Example 89] :: 25 to 75%
Cc1ccccc1-c1ccc(CN2CCN(C(=O)ON3C(=O)CCC3=O)CC2)nc1C [Example 179] :: 25 to 75%
Cc1cccc(-c2ccc(CN3CCN(C(=O)ON4C(=O)CCC4=O)CC3)c(Oc3ccccc3)c2)c1 [Example 169] :: > 75%

Then this compound:
Input: Tell me inhibition at 1 µM reported for COc1ccc(-c2cc(CN3CCN(C(=O)ON4C(=O)CCC4=O)CC3)no2)cc1 [Example 136]
Output: 25 to 75%

###

Target: MAGL (Mus musculus, UniProt O35678)
Sequence (O35678 whole entry): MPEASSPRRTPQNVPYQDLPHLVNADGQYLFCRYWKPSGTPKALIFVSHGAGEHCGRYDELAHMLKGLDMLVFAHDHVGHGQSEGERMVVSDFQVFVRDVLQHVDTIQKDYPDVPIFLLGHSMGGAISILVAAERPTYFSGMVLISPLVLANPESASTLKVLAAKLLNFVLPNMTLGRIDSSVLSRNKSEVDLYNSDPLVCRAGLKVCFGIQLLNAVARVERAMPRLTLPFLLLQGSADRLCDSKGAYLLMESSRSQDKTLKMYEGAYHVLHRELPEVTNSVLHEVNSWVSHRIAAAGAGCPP
Assay: In vitro competitive activity-based protein profiling (FP-Rh), mouse MAGL
Type: biochemical
Set-up: from tissue; host or cells: mouse brain membrane fraction
Conditions: Table 2, mouse proteome, 30 min preincubation at 37° C.
IC50 reference

As a guide, the following entries are already answered.
O=C(ON1C(=O)CCC1=O)N1CCN(Cc2cccc(N3CCCCC3)c2)CC1 :: < 100 nM
O=C(ON1C(=O)CCC1=O)N1CCN(Cc2ccc(Cl)cc2N2CCOC3CCCC32)CC1 (stereo not shown) :: < 100 nM
O=C(ON1C(=O)CCC1=O)N1CCN(C(c2cocn2)c2cocn2)CC1 :: 1000 to 10000 nM
O=C(ON1C(=O)CCC1=O)N1CCN(Cc2ccc(N3CCCC3)c(F)c2)CC1 :: 100 to 1000 nM
CC1CN(C(=O)ON2C(=O)CCC2=O)CCN1Cc1ccc(-c2ccccc2)cc1 (stereo not shown) :: 100 to 1000 nM
Cc1c(CN2CCN(C(=O)ON3C(=O)CCC3=O)CC2)cccc1N1CCOCC1 :: < 100 nM

Input: Send back MAGL (Mus musculus, UniProt O35678) IC50 of "O=C(ON1C(=O)CCC1=O)N1CCN(Cc2ccc(Cl)cc2N2Cc3cccnc3C2)CC1" only.
Output: < 100 nM

Input: Send back MAGL (Mus musculus, UniProt O35678) IC50 of CC1CN(C(=O)ON2C(=O)CCC2=O)CCN1C(c1ccc(Cl)cc1)c1ccc(Cl)cc1 (stereo not shown) only.
Output: 100 to 1000 nM

Input: Send back MAGL (Mus musculus, UniProt O35678) IC50 of "Cn1nc(-c2ccccc2)cc1CN1CCN(C(=O)ON2C(=O)CCC2=O)CC1" only.
Output: 100 to 1000 nM

Input: Send back MAGL (Mus musculus, UniProt O35678) IC50 of "COC(=O)c1cc(CN2CCN(C(=O)ON3C(=O)CCC3=O)CC2)ccc1N1CCOCC1" only.
Output: 1000 to 10000 nM

Input: Send back MAGL (Mus musculus, UniProt O35678) IC50 of "Cc1cc(N2CCCC2)ccc1CN1CCN(C(=O)ON2C(=O)CCC2=O)CC1" only.
Output: 100 to 1000 nM

Input: Send back MAGL (Mus musculus, UniProt O35678) IC50 of "O=C(ON1C(=O)CCC1=O)N1CCN(Cc2cccc(Cl)c2N2CCCC2)CC1" only.
Output: < 100 nM
